Experiment: method code SF-HPLC, from DOI: 10.1002/qsar.200860138
Conditions: pH 3.0
The threshold is 2. Values of logD beneath it are tagged Yes; values meeting or exceeding it are tagged No.

[[record]]
mol = "Cc1ccc(C(=O)c2ccn(CC(=O)O)c2)cc1"
qualitative_label = "Yes"

[[record]]
mol = "O=C(O)Cn1cc(C(=O)c2ccccc2)cc1C(=O)c1ccccc1"
qualitative_label = "No"


Determine whether this compound shows logD lower than 2 (ties excluded): `COc1ccc(C(=O)c2cccn2CC(=O)O)cc1` Yes

Determine whether this compound shows logD lower than 2 (ties excluded): `COc1ccc(C(=O)c2ccn(CC(=O)O)c2)cc1` Yes

Determine whether this compound shows logD lower than 2 (ties excluded): `O=C(O)Cn1cc(C(=O)c2ccccc2)c2ccccc21` No

Determine whether this compound shows logD lower than 2 (ties excluded): `O=C(O)Cn1ccc(C(=O)c2ccc([N+](=O)[O-])cc2)c1` Yes

Determine whether this compound shows logD lower than 2 (ties excluded): `COc1ccc(C(=O)c2cc(C(=O)c3ccc(OC)cc3)n(CC(=O)O)c2)cc1` No

Determine whether this compound shows logD lower than 2 (ties excluded): `O=C(O)Cn1ccc(C(=O)c2ccc3ccccc3c2)c1` No

Determine whether this compound shows logD lower than 2 (ties excluded): `O=C(O)Cc1ccc(C(=O)c2ccccc2)[nH]1` Yes

Determine whether this compound shows logD lower than 2 (ties excluded): `O=C(O)Cn1ccc(-c2nc3ccccc3s2)c1` No
